Recorded values, source ChEMBL document CHEMBL2401733.

test: Metabolic stability in mouse liver microsomes assessed as compound remaining at 1 uM after 30 mins; format: ADME, Microsome; conditions: read-out: Stability
In this scheme, each record receives a class according to its remaining at 0.5 h, 1 µM; the ranges are bin A (below 30%), bin B (30% to below 50%), bin C (50% or more)

| compound | class |
| --- | --- |
| CC(C)N1c2nc(-n3ccnc3-c3ccc(F)cc3)ncc2N(C)C(=O)C12CCC2 | bin A |
| CCC1C(=O)N(C)c2cnc(-n3ccnc3-c3ccc(F)cc3)nc2N1c1cc[nH]n1 (racemic) | bin C |
| CC[C@@H]1C(=O)N(C)c2cnc(-n3ccnc3-c3ccc(F)cc3)nc2N1[C@H]1CCOC1 | bin C |
| CC[C@@H]1C(=O)N(C)c2cnc(-n3ccnc3-c3ccc(F)cc3)nc2N1c1cn[nH]c1 | bin C |
| CC[C@@H]1C(=O)N(C)c2cnc(-c3c[nH]nc3-c3nccs3)nc2N1[C@H]1CCOC1 | bin B |
| CC[C@@H]1C(=O)N(C)c2cnc(-n3ccnc3-c3ccc(F)cc3)nc2N1CCC(F)(F)F | bin B |
| CCC1C(=O)N(C)c2cnc(-n3ccnc3-c3ccc(F)cc3)nc2N1c1ccc(F)cc1 (racemic) | bin B |
| CC[C@@H]1C(=O)N(C)c2cnc(-n3ccnc3-c3ccc(F)cc3)nc2N1c1ccnn1C | bin C |
| CCC1(C)C(=O)N(C)c2cnc(-n3ccnc3-c3ccc(F)cc3)nc2N1CCC(F)(F)F (racemic) | bin A |
| CCC1C(=O)N(C)c2cnc(-n3ccnc3-c3ccc(F)cc3)nc2N1C1CCC(F)(F)C1 (racemic) | bin A |
| CC(C)N1c2nc(-n3ccnc3-c3ccc(F)cc3)ncc2N(C)C(=O)C1(C)C | bin A |
| CC[C@@H]1C(=O)N(C)c2cnc(-c3cn[nH]c3-c3nccs3)nc2N1C1CCOCC1 | bin B |
| CC[C@@H]1C(=O)N(C)c2cnc(-n3ccnc3-c3ccc(F)cc3)nc2N1c1ccn(C)n1 | bin A |
| CN1C(=O)C(CC(F)(F)F)N(CCC(F)(F)F)c2nc(-n3ccnc3-c3ccc(F)cc3)ncc21 (racemic) | bin B |
| CC[C@@H]1C(=O)N(C)c2cnc(-c3cn[nH]c3-c3nccs3)nc2N1c1cn[nH]c1 | bin C |

====

test: Metabolic stability in mouse liver microsomes assessed as compound remaining at 1 uM after 30 mins; type: ADME, Microsome; conditions: read-out: Stability

| compound | remaining at 0.5 h, 1 µM [%] |
| --- | --- |
| CC[C@@H]1C(=O)N(C)c2cnc(-n3ccnc3-c3ccccc3)nc2N1C1CCCC1 | 0 |
| CCC1C(=O)N(C)c2cnc(-n3ccnc3-c3ccc(F)cc3)nc2N1c1ccc(C#N)cc1 (racemic) | 49 |
| CC[C@@H]1C(=O)N(C)c2cnc(-n3ccnc3-c3ccc(F)cc3)nc2N1C1COC1 | 74 |
| CC[C@@H]1C(=O)N(C)c2cnc(-c3c[nH]nc3-c3ccc(F)cc3F)nc2N1c1cnn(C)c1 | 5 |
| CC[C@@H]1C(=O)N(C)c2cnc(-n3ccnc3-c3ccccc3)nc2N1c1cncnc1 | 60 |
| CC[C@@H]1C(=O)N(C)c2cnc(-n3ccnc3-c3ccccc3)nc2N1C(C)C | 12 |

====

test: Drug uptake in Sprague-Dawley rat brain at 200 mg/kg, po measured at 6 hrs; assay type: ADME, organism-based; design: dose 200 mg/kg, route oral; conditions: read-out: Drug uptake
measured-property: concentration at 6 h (µM)

| sample-smiles | measured-property | unit-label | measured |
| --- | --- | --- | --- |
| CC[C@@H]1C(=O)N(C)c2cnc(-n3ccnc3-c3ccc(F)cc3)nc2N1c1ccn(C)n1 | concentration at 6 h | µM | 3.2 |
